- Protocol summary: Acute toxicity, rat
- Condition parameters: in vivo, ip, confidence limits on next printed line
Assign LD50 to each entry below.
One number for each entry, in mg/kg.

CC(C)=CCSC[C@H](N)C(=O)O	3100

In the following, a different compound is considered.
Request: Suppose we examine the compound N[C@@H](CSCC(=O)O)C(=O)O ; what LD50 value has been reported?
Response: 2480

###

- Protocol summary: Acute toxicity, mouse
- Condition parameters: in vivo, ip, confidence limits printed on next line
Metric name: LD50 (mg/kg)
Give bare numbers, in mg/kg.

CC(C)=CCSC[C@H](N)C(=O)O	2090

Request: Given N[C@@H](CSCC(=O)O)C(=O)O , state its recorded LD50.
Response: 1780

###

- Protocol summary: Acute toxicity, mouse
- Condition parameters: in vivo, po
Field: LD50. Provide a value for each of the compounds that follow.

CC(C)=CCSC[C@H](N)C(=O)O	> 4000 mg/kg

Next compound, LD50 to be filled in.
Request: Reported LD50, compound N[C@@H](CSCC(=O)O)C(=O)O : ____
Response: > 4000 mg/kg

Reference source: patent US4243679A
